Value source: PubChem BioAssay (NCI)

- Test system: ACHN renal
- experiment: NCI tumour cell line growth inhibition, 48 h
Quick reference: TGI of the listed items.

Solved cases below.
molecule=Cc1cccc(C(=O)c2cccc3ccccc23)c1C(=O)O system="ACHN renal" endpoint_result="> 100 µM"
molecule=CN(C)CCNc1ccc(C(=O)NCCCN(C)CCCNC(=O)c2ccc(NCCN(C)C)c3c(=O)c4ccccc4[nH]c23)c2[nH]c3ccccc3c(=O)c12 system="ACHN renal" endpoint_result="6.24 µM"
molecule="C=CCC1OC(C)(C)Oc2ccc(OCOCCOC)cc21 (stereo not given)" system="ACHN renal" endpoint_result="> 100 µM"
molecule=CC(C)=CCN=C(N)N system="ACHN renal" endpoint_result="> 100 µM"
molecule=O=c1cnn(C/C=C\CO)c(=O)[nH]1 system="ACHN renal" endpoint_result="> 100 µM"

Lab note: measured TGI of CN1C/C(=C\c2cccs2)C2=NC(=S)NC(c3cccs3)C2C1 (stereo not given) was > 100 µM

Lab note: measured TGI of Cc1ccc(C(=O)O/N=C2/CCCC/C2=C\c2ccccc2)cc1 was > 100 µM

Lab note: measured TGI of COc1ccc(/C=C2\CN(C)Cc3c2nc(N)nc3-c2ccc(OC)cc2)cc1 was > 100 µM
